# Tested on: UO-31 renal
# procedureSummary: NCI-60 one-dose screen, 48 h (100 = growth as untreated, 0 = no growth, -100 = all killed)
# conditionParameters: 10 µM unless noted
The panel holds about 83,000 compounds, 20% with a hit somewhere; the sample as a whole holds those more often. Activity calls are given as the source filed them. The calls were made as follows: active = growth percent below 10; inactive = the rest.
Provide the reported growth of each item.

Solved entries (count: 5):
{"compound": "N[C@H]1CN(C(=O)c2cc3cc(Br)c(F)c(F)c3[nH]2)C[C@@H]1O", "growth": "67.2% (inactive)"}
{"compound": "COc1ccc(-c2c(N)n[nH]c2-c2cc(OC)c(OC)c(OC)c2)cc1", "growth": "27.3% (inactive)"}
{"compound": "Cc1ccc(Cc2c(C=O)nc(N)[nH]c2=O)c2ccccc12", "growth": "81.2% (inactive)"}
{"compound": "CC(C)(C)n1cc(-c2ccnc(NCCCNS(=O)(=O)c3ccccc3)c2)c(-c2cccc(O)c2)n1", "growth": "55.7% (inactive)"}
{"compound": "COc1ccc2c(c1)NC1=C(C(=O)OC1)C2c1cc(OC)c2c(c1)OCO2 (stereo not given)", "growth": "57.5% (inactive)"}

// each compound listed below needs its growth
1. Cc1ccc(-c2cc3nc(C(Cl)Cl)nc(-c4cccnc4)n3n2)cc1
2. COc1ccc(-n2c(-c3ccccc3)c(-c3ccccc3)c3c(SCC(=O)N/N=C/c4ccc(Cl)cc4)ncnc32)cc1
3. CCOC(=O)c1c(NS(=O)(=O)c2ccc(C)cc2)sc2c1CCC1(C2)OCCO1

35.9% (inactive)
74.5% (inactive)
82.6% (inactive)

Dear reader, for each entry below, please note its growth.
1. NC(=N\N=C/c1ccc(O)cc1)/C(N)=N\N=C/c1ccc(O)cc1
2. COc1ccc2[nH]c(=O)c(/C=N/Nc3nc(-c4ccccc4)cs3)c(O)c2c1

1. 28.5% (inactive)
2. 42.5% (inactive)
